- System: Escherichia coli
- procedure_text: Antibacterial activity against Escherichia coli 2231; also: test concentration or dose not given here
- Format: functional
readout: inhibition zone (IZ)

Cc1cc(C2=CC(c3ccc(F)cc3)N(C(=O)c3ccncc3)N2)ccc1O (stereo not drawn): >15 mm
CC1COc2c(N3CCN(C)CC3)c(F)cc3c(=O)c(C(=O)O)cn1c23 (stereo not drawn): >15 mm
Cc1cc(C2=CC(c3ccc(N(C)C)cc3)N(C(=O)c3ccncc3)N2)ccc1O (stereo not drawn): >15 mm
COc1cc(C2C=C(c3ccc(O)c(C)c3)NN2C(=O)c2ccncc2)cc(OC)c1OC (stereo not drawn): 5 mm
COc1ccc(C2C=C(c3ccc(O)c(C)c3)NN2C(=O)c2ccncc2)cc1OC (stereo not drawn): 10 mm
Cc1cc(C2=CC(c3ccccc3)N(C(=O)c3ccncc3)N2)ccc1O (stereo not drawn): 5 mm
Cc1cc(C2=CC(c3cccc([N+](=O)[O-])c3)N(C(=O)c3ccncc3)N2)ccc1O (stereo not drawn): >15 mm
Cc1cc(C2=CC(c3ccccc3Cl)N(C(=O)c3ccncc3)N2)ccc1O (stereo not drawn): >15 mm
Cc1cc(C2=CC(c3c(Cl)cccc3Cl)N(C(=O)c3ccncc3)N2)ccc1O (stereo not drawn): >15 mm
Cc1cc(C2=CC(c3ccc(Cl)cc3)N(C(=O)c3ccncc3)N2)ccc1O (stereo not drawn): >15 mm

Enquiry: # lookup: inhibition zone (IZ) of COc1ccc(C2C=C(c3ccc(O)c(C)c3)NN2C(=O)c2ccncc2)cc1 (stereo not drawn)
Return: 10 mm

Enquiry: # lookup: inhibition zone (IZ) of Cc1cc(C2=CC(c3ccco3)N(C(=O)c3ccncc3)N2)ccc1O (stereo not drawn)
Return: >15 mm

Enquiry: # lookup: inhibition zone (IZ) of "OC(Cn1cncn1)(Cn1cncn1)c1ccc(F)cc1F"
Return: <5 mm
